test system: PCSK9 gene; experiment: PCSK9 gRNA/SpCas9 editing in primary cynomolgus hepatocytes (Tables 2, 22); assay type: cell-based, cynomolgus monkey; details: 500 ng/RNA/mL; SpCas9 mRNA MS002 1:1 by weight
In the oligonucleotide strings, read from the 5' end, every base follows the letter of its sugar. An asterisk marks phosphorothioate; unmarked linkages are phosphodiester. Other units and linkages are bracketed, terminal groups are in braces. A string of capitals states the bases alone. m = 2'-O-methyl; r = 2'-OH (RNA)
Measured Cyno Primary Hepatocyte Editing % 500, listed per entry.
Please respond with the number in % and leave the unit unwritten.

QUERY: Fill blank: measured Cyno Primary Hepatocyte Editing % 500 of the molecule GA236: PCSK9 gRNA; protospacer AGCCCTCGCCAGGCGCTGGC (SEQ ID NO: 229) (nucleic acid, sugars from the 5' end m3 r94 m3, linkages s3 o93 s3 (s phosphorothioate, o phosphodiester), T or U not given here) guide: AGCCCUCGCCAGGCGCUGGCGUUUUAGAGCUAGAAAUAGCAAGUUAAAAUAAGGCUAGUCCGUUAUCAACUUGAAAAAGUGGCACCGAGUCGGUGCUUUU is ____.
RESULT: 11.62

Next:
QUERY: Which Cyno Primary Hepatocyte Editing % 500 is listed for GA173: PCSK9 gRNA; protospacer CTTGGTGAGGTATCCCCGGC (SEQ ID NO: 167) (nucleic acid, sugars from the 5' end m3 r94 m3, linkages s3 o93 s3 (s phosphorothioate, o phosphodiester), T or U not given here) guide: CUUGGUGAGGUAUCCCCGGCGUUUUAGAGCUAGAAAUAGCAAGUUAAAAUAAGGCUAGUCCGUUAUCAACUUGAAAAAGUGGCACCGAGUCGGUGCUUUU ?
RESULT: 8.70

QUERY: For the molecule GA181: PCSK9 gRNA; protospacer GGCTTCCTGGTGAAGATGAG (SEQ ID NO: 175) (nucleic acid) guide: mG*mG*mC*rUrUrCrCrUrGrGrUrGrArArGrArUrGrArGrGrUrUrUrUrArGrArGrCrUrArGrArArArUrArGrCrArArGrUrUrArArArArUrArArGrGrCrUrArGrUrCrCrGrUrUrArUrCrArArCrUrUrGrArArArArArGrUrGrGrCrArCrCrGrArGrUrCrGrGrUrGrCrU*mU*mU*mU , what Cyno Primary Hepatocyte Editing % 500 is on record?
RESULT: 15.43

QUERY: GET /values?readout=Cyno Primary Hepatocyte Editing % 500&item= GA167: PCSK9 gRNA; protospacer TCAGCTCCAGGCGGTCCTGG (SEQ ID NO: 161) (nucleic acid, sugars from the 5' end m3 r94 m3, linkages s3 o93 s3 (s phosphorothioate, o phosphodiester), T or U not given here) guide: UCAGCUCCAGGCGGUCCUGGGUUUUAGAGCUAGAAAUAGCAAGUUAAAAUAAGGCUAGUCCGUUAUCAACUUGAAAAAGUGGCACCGAGUCGGUGCUUUU
RESULT: 35.98

QUERY: Sample GA177: PCSK9 gRNA; protospacer GGTCGCCACTCATCTTCACC (SEQ ID NO: 171) (nucleic acid, sugars from the 5' end m3 r94 m3, linkages s3 o93 s3 (s phosphorothioate, o phosphodiester), T or U not given here) guide: GGUCGCCACUCAUCUUCACCGUUUUAGAGCUAGAAAUAGCAAGUUAAAAUAAGGCUAGUCCGUUAUCAACUUGAAAAAGUGGCACCGAGUCGGUGCUUUU — what was its Cyno Primary Hepatocyte Editing % 500?
RESULT: 4.68

QUERY: Find the recorded Cyno Primary Hepatocyte Editing % 500 belonging to GA245: PCSK9 gRNA; protospacer GTGCTGCTGCCCCTGGCGGG (SEQ ID NO: 238) (nucleic acid, sugars from the 5' end m3 r94 m3, linkages s3 o93 s3 (s phosphorothioate, o phosphodiester), T or U not given here) guide: GUGCUGCUGCCCCUGGCGGGGUUUUAGAGCUAGAAAUAGCAAGUUAAAAUAAGGCUAGUCCGUUAUCAACUUGAAAAAGUGGCACCGAGUCGGUGCUUUU and report it.
RESULT: 0.88
